# Tested on: male Swiss albino mice (CD-1)
# Experiment: Maximal electroshock seizure test (MES)
# Type: in vivo
# Details: Mus musculus, ip, 0.5 h, mice
Measurement kind: ED50 (mg/kg)
Give a bare numeral; the unit mg/kg is implied.

As a guide, the following entries are already answered.
compound="O=C(C(c1ccccc1)N1C(=O)CCC1=O)N1CCN(c2cccc(-c3ccccc3)c2)CC1 (racemic) [Compound 13]" measure_unit=mg/kg observed_result=43.9
compound="O=C(C(c1ccccc1)N1C(=O)CCC1=O)N1CCN(c2cccc(C(F)F)c2)CC1 (racemic) [Compound 9]" measure_unit=mg/kg observed_result=97.7
compound="O=C(C(c1ccccc1)N1C(=O)CCC1=O)N1CCN(c2ccccc2)CC1 (racemic) [Compound 2]" measure_unit=mg/kg observed_result=91.1
compound="O=C(C(c1ccccc1)N1C(=O)CCC1=O)N1CCC(c2cccc(C(F)(F)F)c2)CC1 (racemic) [Compound 19]" measure_unit=mg/kg observed_result=81.8
compound="O=C(C(c1ccccc1)N1C(=O)CCC1=O)N1CCN(c2cc(Cl)cc(Cl)c2)CC1 (racemic) [Compound 4]" measure_unit=mg/kg observed_result=68.5

Notebook: O=C(C(c1ccccc1)N1C(=O)CCC1=O)N1CCN(c2cccc(C(F)(F)F)c2)CC1 (racemic) [Compound 6] , ED50 read as 23.7

Notebook: O=C(C(c1ccccc1)N1C(=O)CCC1=O)N1CCN(c2cccc(Cl)c2)CC1 (racemic) [Compound 3] , ED50 read as 36.9

Notebook: O=C([C@@H](c1ccccc1)N1C(=O)CCC1=O)N1CCN(c2cccc(OC(F)(F)F)c2)CC1 [(R)-10] , ED50 read as 22.6

Notebook: O=C([C@@H](c1ccccc1)N1C(=O)CCC1=O)N1CCN(c2cccc(Cl)c2)CC1 [(R)-3] , ED50 read as 57.7

Notebook: O=C(C(c1ccccc1)N1C(=O)CCC1=O)N1CCN(c2cccc(OC(F)(F)F)c2)CC1 (racemic) [Compound 10] , ED50 read as 41.7

Notebook: O=C(C(c1ccc(F)cc1)N1C(=O)CCC1=O)N1CCN(c2cccc(C(F)(F)F)c2)CC1 (racemic) [Compound 14] , ED50 read as 56.4

Notebook: O=C([C@H](c1ccccc1)N1C(=O)CCC1=O)N1CCN(c2cccc(C(F)(F)F)c2)CC1 [(S)-6] , ED50 read as 68.5

Notebook: Cc1cccc(N2CCN(C(=O)C(c3ccccc3)N3C(=O)CCC3=O)CC2)c1 (racemic) [Compound 5] , ED50 read as 37.2

Notebook: O=C([C@@H](c1ccccc1)N1C(=O)CCC1=O)N1CCN(c2cccc(C(F)(F)F)c2)CC1 [(R)-6] , ED50 read as 36
